All values here come from patent US12129312B2.

- Target or test system: human Chemokine like receptor 1 (Homo sapiens, UniProt Q99788)
- Construct: host or cells: U2OS (Tango CMKLR1-bla U2OS)
- Sequence (Q99788 1-373): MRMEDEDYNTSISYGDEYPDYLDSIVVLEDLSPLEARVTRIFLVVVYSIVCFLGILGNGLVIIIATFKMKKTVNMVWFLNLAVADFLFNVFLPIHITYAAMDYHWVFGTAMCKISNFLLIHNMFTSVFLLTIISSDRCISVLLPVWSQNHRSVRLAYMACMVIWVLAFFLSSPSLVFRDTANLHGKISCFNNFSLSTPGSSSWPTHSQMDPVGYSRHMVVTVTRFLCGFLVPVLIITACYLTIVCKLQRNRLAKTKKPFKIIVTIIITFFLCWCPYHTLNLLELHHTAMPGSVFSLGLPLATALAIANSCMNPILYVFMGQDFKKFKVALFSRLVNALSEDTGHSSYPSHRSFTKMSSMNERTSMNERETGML
- Experiment summary: Activation of Tango CMKLR1-bla U2OS cells (beta-lactamase FRET reporter)
- Type: cell-based
- Setup conditions: determination by the method of Effect Embodiment 1; read-out: EC50
Square brackets hold non-standard residues; d marks the D form. Peptide text beside a SMILES is read from it. * marks the point of attachment. PEG8 = NCCOCCOCCOCCOCCOCCOCCOCCOCCC(=O)O; Hydrocinnamoyl = O=C(CCc1ccccc1)*; Palmitoyl = CCCCCCCCCCCCCCCC(=O)*; Tic = O=C(O)[C@@H]1Cc2ccccc2CN1; NMeL = CN[C@@H](CC(C)C)C(=O)O
I'd be grateful if you could share measured EC50 for these entries.
Enter your answer as a number in nM; do not include the unit.

Lookup: Param item = CCCCCCCCCCCCCCCC(=O)NCCOCCOCCOCCOCCOCCOCCOCCOCCC(=O)NCC(=O)NCC(=O)N[C@H](Cc1ccc(O)cc1)C(=O)N[C@@H](Cc1ccccc1)C(=O)N(C)[C@@H](CC(C)C)C(=O)N1CCC[C@H]1C(=O)N[C@H](CO)C(=O)N[C@@H](CCC(N)=O)C(=O)N[C@@H](Cc1ccccc1)C(=O)N[C@H](C)C(=O)N1Cc2ccccc2C[C@H]1C(=O)N[C@@H](CO)C(=O)O [YW-133] ({Palmitoyl-PEG8}-GG[dY]F[NMeL]P[dS]QF[dA][Tic]S-OH) ; retrieve measured EC50.
Found: 0.7

Lookup: Now consider CC(C)C[C@@H](C(=O)N1CCC[C@H]1C(=O)N[C@H](CO)C(=O)N[C@@H](CCC(N)=O)C(=O)N[C@@H](Cc1ccccc1)C(=O)N[C@H](C)C(=O)N1Cc2ccccc2C[C@H]1C(=O)N[C@@H](CO)C(=O)O)N(C)C(=O)[C@H](Cc1ccccc1)NC(=O)[C@@H](Cc1ccc(O)cc1)NC(=O)CCc1ccccc1 [YW-111] (Hydrocinnamoyl-[dY]F[NMeL]P[dS]QF[dA][Tic]S-OH) .
Found: 2

Lookup: Repeat with CC(C)C[C@@H](C(=O)N1CCC[C@H]1C(=O)N[C@@H](C(=O)N[C@@H](CCC(N)=O)C(=O)N[C@@H](Cc1ccccc1)C(=O)N[C@H](C)C(=O)N1Cc2ccccc2C[C@H]1C(=O)N[C@@H](CO)C(=O)O)[C@H](C)O)N(C)C(=O)[C@H](Cc1ccccc1)NC(=O)[C@H](N)Cc1ccc(O)cc1 [YW-204] (H-[dY]F[NMeL]P[dT]QF[dA][Tic]S-OH; N-terminus assumed)
Found: 62
